- Tested on: MAX:MAX (p21) (human, UniProt P61244-2 1-151)
- Sequence (P61244 other isoform, or with tags, fused parts or gaps): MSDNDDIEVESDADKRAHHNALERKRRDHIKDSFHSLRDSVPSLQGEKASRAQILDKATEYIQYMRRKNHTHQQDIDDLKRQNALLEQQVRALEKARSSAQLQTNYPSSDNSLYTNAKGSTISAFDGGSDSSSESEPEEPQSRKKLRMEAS
- Test summary: protein-binding microarray (anti-MAX antibody); PBM: 15 mM Tris-HCl pH 7.5, 100 mM KCl, 0.075% NP40, 7.5 mM beta-mercaptoethanol, 375 ng/ul BSA, 8 ng/ul poly(dA-dT):(dA-dT), 550 ng complex, 60 min, room tempe; high values mean tight binding
- Run conditions: protein: recombinant; tags: 6xHis; chain copies: 2; label: 3' end of printed strand (linker) attached to glass slide; dsDNA, one strand shown
In all, about 4,500 sequences were measured (“log2 normalized fluorescence”: median about -0.34, highest 2% from about 3.3 on). Shown is part of a subset that was picked to be rich in the highest values.
Property: binding signal

[ask] Provide value of binding signal for this record tested with MAX:MAX (p21) (human, UniProt P61244-2 1-151): `CCGGCTGGCACGTGGGATTAATAGCTAAGATTACTATATCGACG`
[reply] 3.64 log2 normalized fluorescence

[ask] # get_value(readout= binding signal, system= MAX:MAX (p21) (human, UniProt P61244-2 1-151)) for `CCGGCTTACACGTGGAATTAATAGCTAAGATTACTATATCGACG`
[reply] 3.37 log2 normalized fluorescence

[ask] Param readout= binding signal; system= MAX:MAX (p21) (human, UniProt P61244-2 1-151); entry= `CCGGCTGACACGTTATATTAATAGCTAAGATTACTATATCGACG` ; returns value.
[reply] 2.87 log2 normalized fluorescence

[ask] Short answer please: binding signal, MAX:MAX (p21) (human, UniProt P61244-2 1-151), entry `CCGGCCGACACATGGTTTTAATAGCTAAGATTACTATATCGACG`
[reply] 3.32 log2 normalized fluorescence

[ask] Report binding signal for `CCGGCTAACACGTCGTATTAATAGCTAAGATTACTATATCGACG` tested on MAX:MAX (p21) (human, UniProt P61244-2 1-151).
[reply] 2.38 log2 normalized fluorescence

[ask] Form field - read-out: binding signal; system: MAX:MAX (p21) (human, UniProt P61244-2 1-151); submitted item: `CCGGCCGACACGGCGTATTAATAGCTAAGATTACTATATCGACG`
[reply] 0.94 log2 normalized fluorescence

[ask] Missing value: binding signal, MAX:MAX (p21) (human, UniProt P61244-2 1-151), entry `CCGGCCGACACGCGGTTTTAATAGCTAAGATTACTATATCGACG` . Fill in?
[reply] 3.18 log2 normalized fluorescence

[ask] Provide value of binding signal for this record tested with MAX:MAX (p21) (human, UniProt P61244-2 1-151): `CCGGCCGACACGTGGAATTAATAGCTAAGATTACTATATCGACG`
[reply] 3.32 log2 normalized fluorescence

[ask] Return binding signal measured with MAX:MAX (p21) (human, UniProt P61244-2 1-151) given this sequence: `CCGGCTGATTCAAGGTATTAATAGCTAAGATTACTATATCGACG`
[reply] -0.736 log2 normalized fluorescence

[ask] What binding signal appears in the records for this sequence with MAX:MAX (p21) (human, UniProt P61244-2 1-151)? `CCGGCTGAATGGGCGTATTAATAGCTAAGATTACTATATCGACG`
[reply] 0.274 log2 normalized fluorescence

[ask] For MAX:MAX (p21) (human, UniProt P61244-2 1-151), provide binding signal of `CCGGCCGACACCTGTTATTAATAGCTAAGATTACTATATCGACG` please.
[reply] 2.63 log2 normalized fluorescence

[ask] API: value(readout= binding signal, system= MAX:MAX (p21) (human, UniProt P61244-2 1-151), query= `CCGGCTGACATGTGGTTTTAATAGCTAAGATTACTATATCGACG` )
[reply] 2.98 log2 normalized fluorescence

[ask] What value of binding signal on MAX:MAX (p21) (human, UniProt P61244-2 1-151) does `CCGGCTATCACGTGGGATTAATAGCTAAGATTACTATATCGACG` have?
[reply] 3.05 log2 normalized fluorescence

[ask] Reported binding signal for MAX:MAX (p21) (human, UniProt P61244-2 1-151), given `CCGGCTGGCACGTCGGATTAATAGCTAAGATTACTATATCGACG` ?
[reply] 1.33 log2 normalized fluorescence

[ask] # get_value(readout= binding signal, system= MAX:MAX (p21) (human, UniProt P61244-2 1-151)) for `CCGGCTGACACATGGTTTTAATAGCTAAGATTACTATATCGACG`
[reply] 3.37 log2 normalized fluorescence

[ask] Please tell me: binding signal of `CCGGCTACTATGCCATGTTAATAGCTAAGATTACTATATCGACG` , system MAX:MAX (p21) (human, UniProt P61244-2 1-151)?
[reply] 0.457 log2 normalized fluorescence

[ask] Fill in the recorded binding signal for this sequence, with MAX:MAX (p21) (human, UniProt P61244-2 1-151) as test system: `CCGGCTTACATGTGGAATTAATAGCTAAGATTACTATATCGACG`
[reply] 3.25 log2 normalized fluorescence

[ask] API: value(readout=binding signal, system=MAX:MAX (p21) (human, UniProt P61244-2 1-151)) for record `CCGGCTAACACGTAGTATTAATAGCTAAGATTACTATATCGACG`
[reply] 1.92 log2 normalized fluorescence

[ask] MAX:MAX (p21) (human, UniProt P61244-2 1-151) / binding signal / `CCGGCCCGCCAAAGCATTTAATAGCTAAGATTACTATATCGACG` : value?
[reply] 0.154 log2 normalized fluorescence

[ask] Please tell me: binding signal of `CCGGCTTCCACGTGGTATTAATAGCTAAGATTACTATATCGACG` , system MAX:MAX (p21) (human, UniProt P61244-2 1-151)?
[reply] 3.13 log2 normalized fluorescence

[ask] Kindly state the measured binding signal obtained for `CCGGCTAACACGTGGAATTAATAGCTAAGATTACTATATCGACG` with MAX:MAX (p21) (human, UniProt P61244-2 1-151).
[reply] 3.35 log2 normalized fluorescence

[ask] API: value(readout=binding signal, system=MAX:MAX (p21) (human, UniProt P61244-2 1-151)) for record `CCGGCGGGCACGTGGTCTTAATAGCTAAGATTACTATATCGACG`
[reply] 3.13 log2 normalized fluorescence
